Reference source for all entries: patent US8853230B2

# Target of assay: JAK1 (Homo sapiens, UniProt P23458)
# Construct: 5 μl of catalytic domain recombinant Kinase enzyme+Tyr peptide substrate (Invitrogen, Calif.)
# Sequence (P23458 875-1153 limits assumed): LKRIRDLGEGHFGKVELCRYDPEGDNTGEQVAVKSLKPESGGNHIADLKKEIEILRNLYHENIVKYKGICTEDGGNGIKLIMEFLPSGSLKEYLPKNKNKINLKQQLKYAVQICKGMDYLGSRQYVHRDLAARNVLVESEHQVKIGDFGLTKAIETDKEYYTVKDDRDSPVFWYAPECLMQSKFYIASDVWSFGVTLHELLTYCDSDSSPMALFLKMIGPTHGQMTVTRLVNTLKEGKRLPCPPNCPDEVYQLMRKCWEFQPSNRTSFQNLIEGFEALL
# Measurement description: Z'-LYTE kinase assay, JAK1 tyrosine phosphorylation activity
# Condition parameters: read-out: JAK 1 IC50
pIC50: −log10 of the molar value.
The entries below come with measured pIC50 values attached.

Illustrative cases are given below, each with its answer.
# get_value(readout='pIC50', item= `CC(=O)Nc1cccc(Nc2ncc(C(N)=O)c(NCc3ccc(Cl)cc3)n2)c1` )
6.00 to 7.00

# get_value(readout='pIC50', item= `CC(=O)Nc1cccc(Nc2ncc(C(N)=O)c(Nc3ccc(N4CCOCC4)c(F)c3)n2)c1` )
< 6.00

# get_value(readout='pIC50', item= `CC(=O)Nc1cc(Nc2ncc(C(N)=O)c(Nc3cccc4nn(C)cc34)n2)ccc1OCCN(C)C` )
< 6.00

# get_value(readout='pIC50', item= `CC(=O)Nc1cccc(Nc2cc(NCc3cccnc3)c(C(N)=O)cn2)c1` )
6.00 to 7.00

# get_value(readout='pIC50', item= `NC(=O)Nc1cccc(Nc2ncc(C(N)=O)c(NC3CCCC3)n2)c1` )
7.00 to 8.00

# get_value(readout='pIC50', item= `CCC(=O)Nc1cccc(Nc2ncc(C(N)=O)c(NC3CCCC3)n2)c1` )
7.00 to 8.00

***
# get_value(readout='pIC50', item= `CC(=O)Nc1cccc(Nc2ncc(C(N)=O)c(NCCC(C)C)n2)c1` )
7.00 to 8.00

# get_value(readout='pIC50', item= `CC(=O)Nc1cccc(Nc2ncc(C(N)=O)c(N[C@H](CO)Cc3cnc[nH]3)n2)c1` )
6.00 to 7.00

# get_value(readout='pIC50', item= `CCNc1nc(Nc2cccc(NC(=O)N3CCCC3)c2)ncc1C(N)=O` )
7.00 to 8.00

# get_value(readout='pIC50', item= `CC(C)CCNc1cc(Nc2cccc(NC(=O)N3CCCC3)c2)ncc1C(N)=O` )
6.00 to 7.00

# get_value(readout='pIC50', item= `CC(=O)Nc1cccc(Nc2cc(NCCC(C)C)c(C(N)=O)cn2)c1` )
6.00 to 7.00

# get_value(readout='pIC50', item= `CN(C)[C@@H]1CCN(C(=O)Nc2cccc(Nc3cc(NCc4cccc(F)c4)c(C(N)=O)cn3)c2)C1` )
6.00 to 7.00

# get_value(readout='pIC50', item= `C[C@@H](Nc1cc(Nc2cccc(NC(=O)N3CCCC3)c2)ncc1C(N)=O)c1ccccc1` )
6.00 to 7.00

# get_value(readout='pIC50', item= `N#CCC(=O)Nc1cccc(Nc2ncc(C(N)=O)c(NCc3cccc(F)c3)n2)c1` )
7.00 to 8.00

# get_value(readout='pIC50', item= CC(=O)Nc1cccc(Nc2ncc(C(N)=O)c(NC3CC3c3ccccc3)n2)c1 (centres unmarked) )
6.00 to 7.00

# get_value(readout='pIC50', item= `CC(=O)Nc1cccc(Nc2ncc(C(N)=O)c(NCc3ccccc3)n2)c1` )
7.00 to 8.00

# get_value(readout='pIC50', item= `CC(=O)Nc1cccc(Nc2ncc(C(N)=O)c(N[C@@H](C)c3ccccc3)n2)c1` )
6.00 to 7.00

---

# Target of assay: Syk (Homo sapiens)
# Measurement description: Syk IC50 (Table 1; method not given)
# Assay type: biochemical
The entries below come with measured IC50 values attached.

# get_value(readout='IC50', item= `COCC(=O)Nc1cccc(Nc2ncc(C(N)=O)c(NCc3c(F)ccc(F)c3F)n2)c1` )
100 to 1000 nM

# get_value(readout='IC50', item= `CC(=O)Nc1cccc(Nc2ncc(C(N)=O)c(NCC(N)=O)n2)c1` )
> 1000 nM

# get_value(readout='IC50', item= `CC(=O)Nc1cccc(Nc2ncc(C(N)=O)c(NCC(F)(F)F)n2)c1` )
100 to 1000 nM

# get_value(readout='IC50', item= `CC(=O)Nc1cccc(Nc2ncc(C(N)=O)c(N[C@@H](C)c3ccccc3)n2)c1` )
> 1000 nM

Now, please, on to the next compound.
# get_value(readout='IC50', item= `CC(=O)Nc1cccc(Nc2ncc(C(N)=O)c(NCC3CC3)n2)c1` )
100 to 1000 nM

---

The entries below come with measured pIC50 values attached.
# Target of assay: JAK3 (Homo sapiens, UniProt P52333)
# Construct: 5 μl of catalytic domain recombinant Kinase enzyme+Tyr peptide substrate (Invitrogen, Calif.)
# Sequence (P52333 822-1111 limits assumed): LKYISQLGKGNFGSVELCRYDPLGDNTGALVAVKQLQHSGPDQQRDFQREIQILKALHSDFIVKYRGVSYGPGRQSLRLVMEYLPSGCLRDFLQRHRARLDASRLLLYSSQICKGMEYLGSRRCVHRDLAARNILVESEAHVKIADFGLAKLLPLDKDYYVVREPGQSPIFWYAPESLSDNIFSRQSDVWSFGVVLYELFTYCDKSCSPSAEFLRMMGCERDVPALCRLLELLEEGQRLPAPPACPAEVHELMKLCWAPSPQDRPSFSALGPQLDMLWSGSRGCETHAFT
# Measurement description: Z'-LYTE kinase assay, JAK3 tyrosine phosphorylation activity
pIC50: −log10 of the molar value.

Illustrative cases are given below, each with its answer.
# get_value(readout='pIC50', item= `CCNC(=O)Nc1cccc(Nc2ncc(C(N)=O)c(NC3CCCC3)n2)c1` )
8.00 to 9.00

# get_value(readout='pIC50', item= `COCC(=O)Nc1cccc(Nc2ncc(C(N)=O)c(NCC(F)(F)F)n2)c1` )
7.00 to 8.00

# get_value(readout='pIC50', item= `CC(=O)Nc1cccc(Nc2ncc(C(N)=O)c(NCC(N)=O)n2)c1` )
6.00 to 7.00

***
# get_value(readout='pIC50', item= CC(=O)Nc1cccc(Nc2ncc(C(N)=O)c(NCC3CCCN(C(=O)Nc4ccc(F)cc4)C3)n2)c1 (centres unmarked) )
8.00 to 9.00

# get_value(readout='pIC50', item= `NC(=O)c1cnc(Nc2cccc(NC(=O)N3CCOCC3)c2)cc1NCc1cccnc1` )
7.00 to 8.00

# get_value(readout='pIC50', item= `COC[C@H]1CCCN1C(=O)Nc1cccc(Nc2ncc(C(N)=O)c(NCc3ccccc3)n2)c1` )
8.00 to 9.00

# get_value(readout='pIC50', item= `CC(=O)Nc1cccc(Nc2ncc(C(N)=O)c(NCC#N)n2)c1` )
7.00 to 8.00

# get_value(readout='pIC50', item= `CC(=O)Nc1cccc(Nc2ncc(C(N)=O)c(NC3CCCCC3)n2)c1` )
8.00 to 9.00

---

# Target of assay: TYK2 (Homo sapiens, UniProt P29597)
# Construct: 5 μl of catalytic domain recombinant Kinase enzyme+Tyr peptide substrate (Invitrogen, Calif.)
# Sequence (P29597 897-1176 limits assumed): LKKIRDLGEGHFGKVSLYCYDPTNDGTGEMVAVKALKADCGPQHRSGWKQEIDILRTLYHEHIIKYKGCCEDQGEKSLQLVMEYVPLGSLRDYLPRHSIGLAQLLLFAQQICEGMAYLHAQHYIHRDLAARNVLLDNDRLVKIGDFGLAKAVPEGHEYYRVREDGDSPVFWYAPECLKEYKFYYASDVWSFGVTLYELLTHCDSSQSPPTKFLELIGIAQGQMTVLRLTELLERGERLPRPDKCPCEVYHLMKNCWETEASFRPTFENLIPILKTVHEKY
# Measurement description: Z'-LYTE kinase assay, TYK2 tyrosine phosphorylation activity
The entries below come with measured IC50 values attached.

Illustrative cases are given below, each with its answer.
# get_value(readout='IC50', item= `C[C@@H](Nc1nc(Nc2cccc(NC(=O)N3CCOCC3)c2)ncc1C(N)=O)c1ccccc1` )
10 to 100 nM

# get_value(readout='IC50', item= `CC(=O)Nc1cccc(Nc2ncc(C(N)=O)c(N[C@@H](c3ccccc3)C3CC3)n2)c1` )
100 to 1000 nM

# get_value(readout='IC50', item= `CC(=O)Nc1cccc(Nc2cc(NCc3ccc(F)cc3)c(C(N)=O)cn2)c1` )
> 1000 nM

# get_value(readout='IC50', item= `CC(=O)Nc1cccc(Nc2ncc(C(N)=O)c(Nc3cccc4nsnc34)n2)c1` )
10 to 100 nM

# get_value(readout='IC50', item= `CNC(=O)Nc1cc(Nc2ncc(C(N)=O)c(NCc3cccc(Cl)c3)n2)ccc1Cl` )
> 1000 nM

***
# get_value(readout='IC50', item= `CC(=O)Nc1cccc(Nc2ncc(C(N)=O)c(NC3Cc4ccccc4C3)n2)c1` )
10 to 100 nM

# get_value(readout='IC50', item= `CNC(=O)Nc1cc(Nc2ncc(C(N)=O)c(NCc3ccccc3F)n2)ccc1Cl` )
10 to 100 nM

# get_value(readout='IC50', item= `CC(=O)Nc1cccc(Nc2ncc(C(N)=O)c(NC3CCCCC3)n2)c1` )
1 to 10 nM

# get_value(readout='IC50', item= `CC[C@@H](C)Nc1nc(Nc2ccc(Cl)c(NC(=O)N3CCCC3)c2)ncc1C(N)=O` )
10 to 100 nM

# get_value(readout='IC50', item= CC(=O)Nc1cccc(Nc2ncc(C(N)=O)c(NCC3CCCN(C(N)=O)C3)n2)c1 (centres unmarked) )
1 to 10 nM

# get_value(readout='IC50', item= `COC[C@H]1CCCN1C(=O)Nc1cccc(Nc2ncc(C(N)=O)c(NCc3ccccc3)n2)c1` )
1 to 10 nM

---

# Target of assay: TYK2 (Homo sapiens, UniProt P29597)
# Construct: 5 μl of catalytic domain recombinant Kinase enzyme+Tyr peptide substrate (Invitrogen, Calif.)
# Measurement description: Z'-LYTE kinase assay, TYK2 tyrosine phosphorylation activity
pIC50: −log10 of the molar value.
The entries below come with measured pIC50 values attached.

Missing value: pIC50, TYK2 (Homo sapiens, UniProt P29597), entry `C[C@@H](Nc1nc(Nc2cccc(NC(=O)[C@@H]3CCCO3)c2)ncc1C(N)=O)c1ccccc1` . Fill in?
7.00 to 8.00

Missing value: pIC50, TYK2 (Homo sapiens, UniProt P29597), entry `CC(=O)Nc1cccc(Nc2cc(NC3CCCC3)c(C(N)=O)cn2)c1` . Fill in?
7.00 to 8.00

Missing value: pIC50, TYK2 (Homo sapiens, UniProt P29597), entry `NC(=O)c1cnc(Nc2ccc(Cl)c(NC(=O)N3CCC3)c2)nc1NCc1ccccc1` . Fill in?
7.00 to 8.00

Missing value: pIC50, TYK2 (Homo sapiens, UniProt P29597), entry `CN1CCN(C(=O)Nc2cccc(Nc3ncc(C(N)=O)c(NCc4ccccc4)n3)c2)CC1` . Fill in?
8.00 to 9.00

Missing value: pIC50, TYK2 (Homo sapiens, UniProt P29597), entry `C[C@@H](Nc1nc(Nc2ccc(Cl)c(NC(=O)N3CCCCC3)c2)ncc1C(N)=O)c1ccccc1` . Fill in?
6.00 to 7.00
